Provide the reported inhibition of each item.
# assay_explanation: VP16 transactivation inhibitors, counter-screen for SRC1 inhibitor project, cell-based, luminescence, high throughput (AID 588824)
# condition_info: cell-based VP16 transactivation luciferase luminescence; at 3.6 µM; active compounds read high
Numbered stars: 1 amine (or outer) side, 2 acyl side, 3 side chain; on linkers, the order of the positions; unused ones are H or OH. Bridge positions count the residues as written; N and C are the ends. Square brackets hold non-standard residues; d marks the D form. Peptide text beside a SMILES is read from it. ξ: configuration not given here. X1 = CC[C@H](CCC[C@@H](O)[C@@H](C)C(=O)O[C@H](C)[C@@H](C)C/C=C(C)/C(=C\C(=O)[*:1])OC)O[*:2]; NMeξIle = CC[C@H](C)C(NC)C(=O)O; NMeV = CN[C@H](C(=O)O)C(C)C; NMeS = CN[C@@H](CO)C(=O)O
One number for each entry, in %.

CSC1=NCCCN1C(=O)c1c(-c2ccccc2Cl)noc1C :: -14.8
CN1CCN(c2ccc(-c3ccc4ccccc4n3)cc2)CC1 :: 36.6
CCCC(=O)NC(c1ccc(C)cc1)c1ccc2cccnc2c1O (centres undefined) :: 79
CC(C)(C)S(=O)N1Cc2cc(C(=O)NCC(F)(F)F)nc(-c3cccc(-c4cccc(F)c4)c3)c2[C@@H]1CCO (some centres undefined) :: -2.6
COc1cccc(/C=N/NC(=O)c2c(C)nc3ccc(Cl)cn23)c1O :: 73.9

For each listed entry, give its inhibition.
1. COC1=CC(=O)c2nc(Cl)ccc2C1=O
2. Cc1cn([C@@H](CCCCNC(=O)OC(C)(C)C)C(=O)NCCCCCCCCCCC(=O)N2CCN(C(=O)OC(C)(C)C)CC2)nn1
3. CC[C@@H]1CCC[C@@H](O)[C@@H](C)C(=O)O[C@H](C)[C@@H](C)C/C=C(C)/C(OC)=C\C(=O)N(C)C([C@@H](C)CC)C(=O)N(C)[C@@H](C(C)C)C(=O)N(C)[C@@H](COC)C(=O)N2CCC[C@H]2C(=O)N(C)[C@@H](C(C)C)C(=O)N2CCC[C@H]2C(=O)O1 (some centres undefined) ([NMeξIle][NMeV][NMeS](Me)P[NMeV]P; linker N-C via X1)
4. CC1(C)Cc2c(ccc3ccccc23)C(=O)N1
5. O=C(CNS(=O)(=O)Cc1ccccc1)NNc1ccccc1
6. Nn1c(SCC(=O)Nc2ccccc2)nnc(Cc2ccccc2)c1=O
7. O=C(Nc1cccc(S(=O)(=O)Nc2ccccc2Cl)c1)c1ccc(Cl)nc1

60.7
41.8
87.5
23.7
16.3
5.01
32.2
